tested on: NOMO1; assay: cell viability relative to DMSO control; higher = less cytotoxic; conditions: HPLM + 10% dialyzed FBS; 48 h; 46.1 µM
Experimental Readout: cell viability (%)

molecule=CC(C)NC[C@@H](C(=O)N1CCN(c2ncnc3c2[C@H](C)C[C@H]3O)CC1)c1ccc(Cl)cc1 experimental_readout="cell viability" unit_name=% numeric_result=18.6
molecule=COC1=CC=C(C=C1)C/2=C/OC3=C(C(=CC(=C3)O)O)C2=O experimental_readout="cell viability" unit_name=% numeric_result=60.5
molecule=CN(NC(=O)CC(=O)NN(C)C(=S)c1ccccc1)C(=S)c1ccccc1 experimental_readout="cell viability" unit_name=% numeric_result=6.98
molecule=Cc1cccc(Nc2nc(-c3ccncc3)cs2)c1 experimental_readout="cell viability" unit_name=% numeric_result=134
molecule=OC1=CC2=C(C(=C1)O)C(=O)\C=C(/O2)C3=CC=CC=C3 experimental_readout="cell viability" unit_name=% numeric_result=20.2
molecule=C=C(C)[C@H]1Cc2c(ccc3c2O[C@@H]2COc4cc(OC)c(OC)cc4[C@@H]2C3=O)O1 experimental_readout="cell viability" unit_name=% numeric_result=28.8

* * *

test system: NOMO1; experiment: AUC of viability dose-response curve (% viability x log10 dose units); higher = less sensitive; conditions: HPLM + 10% dialyzed FBS; 48 h
# maps each entry to its AUC of viability dose-response curve
Experimental Readout: AUC of viability dose-response curve

molecule=C[C@@]12C[C@@]3(O)O[C@@H](O1)[C@]1(COC(=O)c4ccccc4)[C@H]3C[C@@]12O[C@@H]1O[C@H](CO)[C@@H](O)[C@H](O)[C@H]1O numeric_result=436
molecule=Nc1nc(Cl)nc2c1ncn2[C@H]1C[C@H](O)[C@@H](CO)O1 numeric_result=256
molecule=CNc1nccc(-c2cccnc2Oc2cc(C(=O)Nc3cccc(C(F)(F)F)c3)ccc2C)n1 numeric_result=458
molecule=Cc1cc(C(C)(C)C)c(O)c(C)c1CC1=NCCN1 numeric_result=432

* * *

test system: SEM cells; assay: cell viability relative to DMSO control; higher = less cytotoxic; details: HPLM + 10% dialyzed FBS; 48 h; 0.569 µM
Experimental Readout: cell viability (%)

compound=N#Cc1c(NC(=O)c2cccc3ccccc23)sc2c1CCCC2 experimental_readout="cell viability" numeric_result=66
compound=COCCCN1CCC(NC(=O)c2cc(Cl)c(N)c3c2OCC3)CC1 experimental_readout="cell viability" numeric_result=114
compound="CNC1CCC(N(Cc2cccc(-c3ccncc3)c2)C(=O)c2sc3c(F)ccc(F)c3c2Cl)CC1 (stereo unspecified)" experimental_readout="cell viability" numeric_result=102
compound=C[C@@H]1[C@H](O)[C@@H](C)/C=C/C=C/C=C/C=C/C=C/C=C/C=C/[C@H](O[C@@H]2O[C@H](C)[C@@H](O)[C@H](N)[C@@H]2O)C[C@@H]2O[C@](O)(C[C@@H](O)C[C@@H](O)[C@H](O)CC[C@@H](O)C[C@@H](O)CC(=O)O[C@H]1C)C[C@H](O)[C@H]2C(=O)O experimental_readout="cell viability" numeric_result=103
compound=CC(C)CC(=O)N[C@H](C(=O)N[C@H](C(=O)N[C@@H](CC(C)C)[C@@H](O)CC(=O)N[C@@H](C)C(=O)N[C@@H](CC(C)C)[C@@H](O)CC(=O)O)C(C)C)C(C)C experimental_readout="cell viability" numeric_result=101
compound=CCn1c(-c2nonc2N)nc2cnc(Oc3cccc(NC(=O)c4ccc(OCCN5CCOCC5)cc4)c3)cc21 experimental_readout="cell viability" numeric_result=113
